# target_or_test_system: Lysine-specific demethylase 5B (Homo sapiens) (UniProt Q9UGL1)
# Sequence (Q9UGL1 whole entry, looked up): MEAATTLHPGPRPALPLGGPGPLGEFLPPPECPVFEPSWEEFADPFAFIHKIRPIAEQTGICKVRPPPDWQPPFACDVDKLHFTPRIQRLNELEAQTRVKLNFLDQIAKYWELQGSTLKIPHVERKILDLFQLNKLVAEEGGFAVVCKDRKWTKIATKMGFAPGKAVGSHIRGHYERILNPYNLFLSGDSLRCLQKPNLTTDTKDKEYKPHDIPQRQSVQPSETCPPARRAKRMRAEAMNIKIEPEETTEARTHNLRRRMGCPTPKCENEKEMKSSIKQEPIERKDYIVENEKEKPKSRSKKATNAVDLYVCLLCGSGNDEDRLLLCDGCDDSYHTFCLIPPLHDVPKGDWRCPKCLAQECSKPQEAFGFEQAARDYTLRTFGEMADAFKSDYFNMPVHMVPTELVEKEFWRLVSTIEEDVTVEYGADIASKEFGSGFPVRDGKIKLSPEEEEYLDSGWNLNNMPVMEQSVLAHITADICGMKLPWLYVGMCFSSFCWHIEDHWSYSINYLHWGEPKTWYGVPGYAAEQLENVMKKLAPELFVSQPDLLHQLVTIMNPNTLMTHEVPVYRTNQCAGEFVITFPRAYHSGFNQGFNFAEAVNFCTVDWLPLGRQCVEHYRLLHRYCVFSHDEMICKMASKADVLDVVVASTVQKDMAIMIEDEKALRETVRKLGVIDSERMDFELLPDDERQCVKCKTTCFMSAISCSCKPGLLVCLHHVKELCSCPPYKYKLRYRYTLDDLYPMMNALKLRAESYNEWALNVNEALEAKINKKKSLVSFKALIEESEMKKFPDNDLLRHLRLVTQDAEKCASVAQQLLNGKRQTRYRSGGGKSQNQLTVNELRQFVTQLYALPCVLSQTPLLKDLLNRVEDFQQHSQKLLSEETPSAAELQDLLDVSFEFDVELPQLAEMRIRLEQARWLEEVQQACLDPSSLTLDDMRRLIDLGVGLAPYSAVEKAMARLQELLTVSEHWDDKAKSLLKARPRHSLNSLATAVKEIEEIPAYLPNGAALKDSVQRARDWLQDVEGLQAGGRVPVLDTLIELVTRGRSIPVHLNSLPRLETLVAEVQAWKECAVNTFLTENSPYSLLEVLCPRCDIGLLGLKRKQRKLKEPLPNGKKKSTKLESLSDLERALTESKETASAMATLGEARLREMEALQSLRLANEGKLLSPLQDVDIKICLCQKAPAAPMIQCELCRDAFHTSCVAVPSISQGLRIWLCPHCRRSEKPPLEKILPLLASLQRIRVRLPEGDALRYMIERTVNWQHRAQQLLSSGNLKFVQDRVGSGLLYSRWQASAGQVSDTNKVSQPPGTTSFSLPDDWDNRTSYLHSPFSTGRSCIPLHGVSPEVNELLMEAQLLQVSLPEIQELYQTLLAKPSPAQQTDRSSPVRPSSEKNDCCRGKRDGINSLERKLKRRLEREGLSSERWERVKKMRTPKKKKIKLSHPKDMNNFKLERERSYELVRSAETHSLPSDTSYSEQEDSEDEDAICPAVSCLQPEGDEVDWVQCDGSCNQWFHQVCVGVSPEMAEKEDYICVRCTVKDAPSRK
# experiment_description: Primary screen for KDM5B Histone Demethylases FDH-coupled qHTS; note: nearly all actives have a fitted effect of over 70% in size
# recorded_conditions: FDH-coupled NADH fluorescence; series mostly up to 57.7 µM
In all, about 220,000 compounds went through this assay and about 5,700 (2.6%) were called active. About 18% were inconclusive and are not listed. Calls come from the whole dose curve; as a rule, active = well fitted inhibition curve with a large enough effect; inconclusive = small, poorly fitted or top-dose-only effect; inactive = no such curve, though single readings can be large or run the other way. The list comes from a sample in which actives are over-represented; it also holds close analogues and randomly drawn compounds.
Your response should consist of one outcome taken from active, inactive

Cc1ccccc1CN1C(=O)c2ccccc2Sc2ccc(C(=O)NCCCN3CCOCC3)cc21
inactive
Cc1cnc(CCNC(=O)c2ccco2)n1C1CCC1
inactive
COCCN1C(=O)C(O)=C(C(=O)c2ccc(C)o2)C1c1ccc(O)c(OC)c1 (centres undefined)
inactive
O=C(c1ccc(Cl)cc1)N(Cc1ccco1)c1ccc(O)cc1
inactive
COc1ccccc1NC(=O)C1c2ccccc2C(=O)N(CC(C)C)C12CCCC2 (centres undefined)
inactive

// param item: COc1ccc(CN[C@@H]2CCC[C@@H](C(=O)NCc3cc(C)on3)CC(=O)N(C)C2)cn1 ; yields the recorded call inactive

// param item: COc1ccc(CNC(=O)c2cccc3c2CCN3C(=O)c2ccc(F)cc2)cc1OC ; yields the recorded call inactive

// param item: CC(=O)Oc1ccc(C(=O)Nc2ccc(O)c(-c3nc4ccccc4o3)c2)cc1 ; yields the recorded call inactive

// param item: Cc1noc(-c2cccc(OC3CN(C(=O)NCCc4ccccc4)C3)c2)n1 ; yields the recorded call inactive

// param item: CC1CCCN(CC(=O)Nc2oc3ccccc3c(=O)c2-c2ccc(F)cc2)C1 (centres undefined) ; yields the recorded call inactive

---

# target_or_test_system: Lysine-specific demethylase 5B (Homo sapiens) (UniProt Q9UGL1)
# experiment_description: Primary screen for KDM5B Histone Demethylases FDH-coupled qHTS; note: nearly all actives have a fitted effect of over 70% in size
# recorded_conditions: FDH-coupled NADH fluorescence; series mostly up to 57.7 µM
# From the text: Assay Submitter (PI): Qin Yan, Ph.D. (Yale University) and Xiaodong Cheng, Ph.D. (MD Anderson) This project was funded as part of the NCI NEXT Program and Chemical Biology Consortium (CBC) The histone demethylases, KDM5A and KDM5B catalyze the demethylation of lysine 4 on histone H3 (H3K4me3/2). They are overexpressed in a variety of cancers and have been implicated in cancer cell growth, metastasis, drug resistance, and tumor growth. […]
The campaign covered roughly 220,000 compounds. About 5,700 (2.6%) were called active. Not shown: some 18% with an inconclusive outcome. The call rests on the fitted dose curve; in most records, active means well fitted inhibition curve with a large enough effect; inconclusive means small, poorly fitted or top-dose-only effect; inactive means no such curve, though single readings can be large or run the other way. This is one part of a sample in which actives are shown more often than they occur.
Your response should consist of one outcome taken from active, inactive

Consider the worked cases shown below.
COc1ccc(-c2csc3c2NC(=O)CC3c2ccc(OCC(N)=O)c(OC)c2)cc1 (configuration not stated)
inactive
Cc1ccc(-c2ccc3nnc(CNC(=O)c4ccccn4)n3n2)cc1
active
Cn1c(SCc2ccc(F)cc2)nnc1-c1ccncc1
inactive
Cc1nc(CNC(=O)[C@H]2CCC[C@@H](O)C2)nc2c1CCCC2
inactive
Cc1ccc(CNC(=O)c2cccc3cccnc23)cc1
inactive
CCCNC(=O)C(NC(=O)c1cccc(OC)c1)C1CCN(C(=O)c2ccccc2F)CC1 (configuration not stated)
inactive
CC1=NS(=O)(=O)N(Cc2ccccc2)C=C1C(=O)OCc1noc(C)n1
inactive
Fc1ccc(-c2cc(NC3CCCC3)nc3[nH]ccc23)nc1
active
CN(CCOc1ccccc1Cl)C(=O)c1cc2ccccc2oc1=O
inactive
Cc1ccc(CN2CCC(Oc3cnc4c(ccn4CCN[S+](C)(=O)[O-])c3)CC2)c(F)c1
active

// param item: CCNC(=O)NC(=O)C(C)Sc1nc(-c2ccccc2)c(-c2ccccc2)o1 (configuration not stated) ; yields the recorded call inactive

// param item: COc1ccc(-c2nc(CN3CCCC3c3nnc4ccccn34)co2)cc1 (configuration not stated) ; yields the recorded call inactive

// param item: COCCn1c(C)cnc1CC1CCN(C(=O)c2ccc(OC)cc2OC)CC1 ; yields the recorded call inactive

// param item: Cc1ccncc1C(=O)N1CCC(Cn2c(C)cnc2-c2cccnc2)CC1 ; yields the recorded call inactive

// param item: CCOc1ccccc1NC(=O)NC1CCCCCCC1 ; yields the recorded call inactive

// param item: CCn1nc(C(=O)Nc2ccc(I)cc2C)c2ccccc2c1=O ; yields the recorded call inactive

// param item: O=C(Nc1ccc(SC2CCCC2)cc1)C1CCCC1 ; yields the recorded call inactive

---

# target_or_test_system: Lysine-specific demethylase 5B (Homo sapiens) (UniProt Q9UGL1)
# experiment_description: Primary screen for KDM5B Histone Demethylases FDH-coupled qHTS; note: nearly all actives have a fitted effect of over 70% in size
# recorded_conditions: FDH-coupled NADH fluorescence; series mostly up to 57.7 µM
Among all 220,000 compounds or so, about 5,700 (2.6%) were called active. Inconclusive results (about 18%) are left out. Calls come from the whole dose curve; as a rule, active = well fitted inhibition curve with a large enough effect; inconclusive = small, poorly fitted or top-dose-only effect; inactive = no such curve, though single readings can be large or run the other way. This excerpt belongs to a sample that is enriched for actives.
Your response should consist of one outcome taken from active, inactive

Consider the worked cases shown below.
O=C(O)c1ccc(C(=O)C2CCCCC2C(=O)O)cc1 (configuration not stated)
inactive
O=C1CCN(C(=O)c2nccc3ccccc23)CCOCCN1
inactive
Cc1nc(-c2cn(C3CCCN(C(=O)c4cccs4)C3)nn2)no1 (configuration not stated)
inactive
O=c1oc2ccccc2c(N2CCCC2)c1NS(=O)(=O)c1cccc(F)c1
inactive
Cc1noc(C)c1-c1nccc2c(=O)cc(N3CCOCC3)oc12
active
Cc1cccc(NC(=O)Nc2ccc(OCc3ccccc3)cc2)n1
inactive
Cc1occc1-c1nnc(SCC(=O)c2cc(C)n(C3CC3)c2C)n1C
inactive
Cn1c(CN2CCOCC2)nnc1C1CCN(c2ncccc2C#N)CC1
active

With those in mind, consider the next compound.
// param item: COc1ccccc1Cc1nnc(NC(=O)c2cccc(NC(=O)c3ccccc3)c2)s1 ; yields the recorded call inactive

---

# target_or_test_system: Lysine-specific demethylase 5B (Homo sapiens) (UniProt Q9UGL1)
# experiment_description: Primary screen for KDM5B Histone Demethylases FDH-coupled qHTS; note: nearly all actives have a fitted effect of over 70% in size
# recorded_conditions: FDH-coupled NADH fluorescence; series mostly up to 57.7 µM
# Excerpt: Assay Submitter (PI): Qin Yan, Ph.D. (Yale University) and Xiaodong Cheng, Ph.D. (MD Anderson) This project was funded as part of the NCI NEXT Program and Chemical Biology Consortium (CBC) The histone demethylases, KDM5A and KDM5B catalyze the demethylation of lysine 4 on histone H3 (H3K4me3/2). They are overexpressed in a variety of cancers and have been implicated in cancer cell growth, metastasis, drug resistance, and tumor growth. […]
The whole screen tested about 220,000 compounds, of which about 5,700 (2.6%) were called active. Roughly 18% stayed inconclusive and do not appear here. Calls come from the whole dose curve; as a rule, active = well fitted inhibition curve with a large enough effect; inconclusive = small, poorly fitted or top-dose-only effect; inactive = no such curve, though single readings can be large or run the other way. This excerpt belongs to a sample that is enriched for actives.
Your response should consist of one outcome taken from active, inactive

Cc1cnc(C)c(N2CCN(C(=O)[C@H]3CC[C@@H](N)C3)CC2)n1
active
CC(C)NC(=O)Nc1cccc(C(=O)Nc2cccc(Cl)c2)c1
inactive
COC(=O)CNC(=O)c1nc(-c2ccc([S+](C)(=O)[O-])cc2)c2ccccn12
inactive
Nc1cc(OCC(F)(F)F)cc(OCC(F)(F)C(F)F)c1
inactive
CC(=O)Nc1ccc(SCC(=O)N(Cc2nc3ccccc3c(=O)[nH]2)CC2CCCO2)cc1 (configuration not stated)
inactive

// param item: N[C@@H]1CC[C@H](C(=O)N2CCN(CCCOc3ccc(F)cc3)CC2)C1 ; yields the recorded call inactive

// param item: Cc1cnc(C)c(N2CCN(C(=O)C3CCC(=O)N(CCc4cccc(F)c4)C3)CC2)n1 (configuration not stated) ; yields the recorded call inactive

---

# target_or_test_system: Lysine-specific demethylase 5B (Homo sapiens) (UniProt Q9UGL1)
# experiment_description: Primary screen for KDM5B Histone Demethylases FDH-coupled qHTS; note: nearly all actives have a fitted effect of over 70% in size
# recorded_conditions: FDH-coupled NADH fluorescence; series mostly up to 57.7 µM
The whole screen tested about 220,000 compounds, of which about 5,700 (2.6%) were called active. Another 18% or so got no clear call; they are omitted. The call rests on the fitted dose curve; in most records, active means well fitted inhibition curve with a large enough effect; inconclusive means small, poorly fitted or top-dose-only effect; inactive means no such curve, though single readings can be large or run the other way. This excerpt belongs to a sample that is enriched for actives.
Your response should consist of one outcome taken from Yes (active), No (inactive)

Consider the worked cases shown below.
CC(NC(=O)c1ccc(SC(F)(F)F)cc1)c1ccccn1 (stereo unspecified)
No
CN(C(=O)Cn1nc(Cc2cccnc2)c2ccccc2c1=O)c1ccccc1Cl
No
CCCS(=O)(=O)N1Cc2c(ncn2Cc2ccc(Cl)cc2)C[C@H]1C(=O)OC
No
COCc1nnc(NC(=O)C2c3ccccc3C(=O)N(C3CCCC3)C23CCCC3)s1 (stereo unspecified)
No
O=[N+]([O-])c1ccccc1CN1C[C@H](O)C[C@H]1c1nc(-c2ccc(F)cc2)no1
Yes

// param item: CCOC(=O)CN(CCOC)C(=O)CCCc1ccccc1 ; yields the recorded call No

---

# target_or_test_system: Lysine-specific demethylase 5B (Homo sapiens)
# experiment_description: Primary screen for KDM5B Histone Demethylases FDH-coupled qHTS; note: nearly all actives have a fitted effect of over 70% in size
# recorded_conditions: FDH-coupled NADH fluorescence (FDH is formaldehyde dehydrogenase); series mostly up to 57.7 µM
Among all 220,000 compounds or so, about 5,700 (2.6%) were called active. Roughly 18% stayed inconclusive and do not appear here. The call rests on the fitted dose curve; in most records, active means well fitted inhibition curve with a large enough effect; inconclusive means small, poorly fitted or top-dose-only effect; inactive means no such curve, though single readings can be large or run the other way. The sample holds actives, similar compounds and a random draw of the others, so the mix is not that of the screen.
Your response should consist of one outcome taken from Y (active), N (inactive)

Consider the worked cases shown below.
O=C(NC1CCCCC1)N1CCCCCC1c1nc(-c2cccnc2)no1 (stereo not given)
N
c1coc(-c2nc(-c3cccs3)no2)c1
N
NC(=O)c1cccc(-c2ncc3c(n2)OCCN(Cc2ccccc2)C3=O)c1
N
O=C1c2cnc(-c3ccccc3)nc2OCCN1c1ccccc1
N
CN(C)C[C@@H]1CN(C)C[C@H]1NC(=O)c1cc2ccccc2[nH]1
Y
O=C(N[C@@H]1CN(Cc2c(F)cccc2F)C[C@H]1CO)c1ccccc1
N

// param item: Cc1cc(C)n(CCC(=O)N[C@@H]2CN(S(C)(=O)=O)C[C@H]2CN(C)C)n1 ; yields the recorded call N

// param item: COc1ccc(-c2ncc3c(n2)OCCN(Cc2ccccc2)C3=O)cn1 ; yields the recorded call Y

// param item: CC(C)(C)C(=O)N1CC[C@@H](CC(=O)O)[C@@H](CCN2CCN(c3cccc(C(F)(F)F)c3)CC2)C1 ; yields the recorded call N

// param item: O=C1c2cnc(-c3ccc(Cl)cc3)nc2OCCN1Cc1ccccc1 ; yields the recorded call N
